- System: K-562 leukemia
- Assay comment: NCI-60 one-dose screen, 48 h
- Measurement context: 10 µM unless noted
Compounds without any hit were thinned out: in the full panel of roughly 83,000, 20% have a hit. Active and inactive are the calls of the source. The calls were made as follows: active = growth percent below 10; inactive = the rest.
Assign a class; possible classes are active, inactive

Solved cases below.
INSERT INTO assay_data (compound, cat) VALUES
  ('O=C(/C=C/c1ccc(Cl)cc1)c1cccc(Nc2nc(Nc3ccccc3)nc(Nc3ccccc3)n2)c1', 'inactive'),
  ('C/C(=N/O)c1ccc(F)cc1', 'inactive');

Outcome? `COc1ccc(-c2csc(NC(=O)CSc3nc(-c4ccccc4)cc(=O)[nH]3)n2)cc1`
inactive

Outcome? `CC1(C)CC2=C3C=C[C@@H]4[C@@]5(C)CCC(=O)C(C)(C)[C@@H]5CC[C@@]4(C)[C@]3(C)CC[C@@]2(C(=O)O)CC1=O`
inactive

Outcome? N#CC1=C(N)Oc2c(sc3c(Br)cccc23)C1c1ccc(F)cc1 (stereo not drawn)
active

---

Below, each entry is listed alongside its reported growth.
- Tested on: SR leukemia
- Assay comment: NCI-60 one-dose screen, 48 h (100 = growth as untreated, 0 = no growth, -100 = all killed)
- Measurement context: 10 µM unless noted
Compounds without any hit were thinned out: in the full panel of roughly 83,000, 20% have a hit.
Give the quantity in %, number only.

INSERT INTO assay_data (compound, unit_abbrev, value) VALUES
  ('CCCCCCNC(=O)Oc1ccc(/C(=C(/C)Cc2ccc(OC)cc2)c2ccc(OCCCN(C)C)cc2)cc1', '%', -53.3);

Given Cc1cccc(N2CCN(CC(O)COc3ccc(Cl)cc3)CC2)c1 (stereo not given) , respond with its growth.
79.7

Given `Clc1ccc(CNc2c3ccccc3nc3ccccc23)cc1` , respond with its growth.
2.32

Given `CC(C)OC(=O)c1ccc2[nH]c(O)c(C(=Nc3ccc(N(C)C(=O)CN4CCN(C)CC4)cc3)c3ccccc3)c2c1` , respond with its growth.
-20.3

Given `CCCc1cc(NC)nc(S(=O)(=O)CC)n1` , respond with its growth.
102

Given `O=C1/C(=C/c2ccc(-c3ccc(Br)cc3)o2)SC(=S)N1CCc1ccc(O)cc1` , respond with its growth.
19.2

---

- Tested on: SK-OV-3 ovarian
- Assay comment: NCI-60 one-dose screen, 48 h (100 = growth as untreated, 0 = no growth, -100 = all killed)
- Measurement context: 10 µM unless noted
The panel holds about 83,000 compounds, 20% with a hit somewhere; the sample as a whole holds those more often.
Below, each entry is listed alongside its reported growth.
Give the quantity in %, number only.

Before answering, review these 2 worked examples.
INSERT INTO measurements (compound, result_type, value) VALUES
  ('COc1ccc(-c2nn(-c3ccccc3)cc2/C=C2/SC(=S)N(C)C2=O)cc1', 'growth', 90.8),
  ('C#CCOc1ccc2ncnc(Nc3cccc(NC(=O)C=C)c3)c2c1', 'growth', 60.6);

Given `COc1ccc2c(c1)[n+]([O-])c(C(=O)/C=C/C=C(\Cl)c1cc(OC)c(OC)c(OC)c1)c(C)[n+]2[O-]` , respond with its growth.
38

---

- Test system: UACC-62 melanoma
- Assay comment: NCI-60 one-dose screen, 48 h (100 = growth as untreated, 0 = no growth, -100 = all killed)
- Measurement context: 10 µM unless noted
The panel holds about 83,000 compounds, 20% with a hit somewhere; the sample as a whole holds those more often.
Result type: growth (%)
Give the quantity in %, number only.

INSERT INTO results (chemical_structure, value) VALUES
  ('O=C(NCCCCNC(=O)OCc1ccc2c(Cl)cc(Cl)c(O)c2n1)OCc1ccc2c(Cl)cc(Cl)c(O)c2n1', 36.7),
  ('CN(C)c1ccc(/C=C/C(=O)c2ccc(-n3cc(CN4CCN(c5cc6c(cc5F)c(=O)c(C(=O)O)cn6C5CC5)CC4)nn3)cc2)cc1', 55.8),
  ('COCCn1c(-c2csc(-c3cn(C)c4ccc(OC)cc34)n2)cc2cccnc21', 82.1),
  ('Cc1c(-c2nc3ccc(F)cc3c(=O)[nH]2)c2ccccc2n1C', 19.6),
  ('O=C1c2c(c3c4ccccc4[nH]c3c3ccc4ccccc4c23)C(=O)N1CCN1CCCCC1', 42.8),
  ('CCCCC[C@@H]1Cc2cc(O)c(C(=O)O)c3c2[C@H](C[C@]2(OC[C@@H](CC(=O)[C@@](C)(CC)C(=O)OC)[C@@H]2C)O3)O1', 88.9),
  ('CCCCC(=O)Nc1ncc(Cc2ccc(Cl)cc2)s1', 49.6);

Quote growth with test system UACC-62 melanoma for `CCCCN[C@H]1CC[C@@]2(C)[C@@H](CC[C@@]3(C)[C@H]2[C@H](O)C[C@H]2/C(=C(\CCC=C(C)C)C(=O)OC)[C@@H](OC(C)=O)C[C@@]23C)[C@@H]1C`
95.5
